Cited source for all entries: patent US4575497A

system: Klebsiella pneumoniae KB214; experiment: MIC against Klebsiella pneumoniae KB214 (G); format: cell-based; conditions: Heart infusion agar (pH 7.0)
Each item that follows carries a reported Minimum inhibitory concentration (MIC).

Answered cases to consult:
CCC(=O)OC1C(C)OC(OC2C(C)OC(OC3C(CC=O)CC(C)C(OC4CCC(N(C)C)C(C)O4)C=CC=CCC(C)OC(=O)CC(OC(C)=O)C3OC)C(O)C2N(C)C)CC1(C)OC(C)=O (stereo not drawn)
> 100 μ g/ml
CCC(=O)OC1CC(=O)OC(C)CC=CC=CC(OC2CCC(N(C)C)C(C)O2)C(C)CC(CC=O)C(OC2OC(C)C(OC3CC(C)(OC(=O)CC)C(OC(C)=O)C(C)O3)C(N(C)C)C2O)C1OC (stereo not drawn)
> 100 μ g/ml

Pending compound:
### Prompt For CCC(=O)OC1CC(=O)OC(C)CC=CC=CC(OC2CCC(N(C)C)C(C)O2)C(C)CC(CC=O)C(OC2OC(C)C(OC3CC(C)(OC(C)=O)C(OC(=O)CC)C(C)O3)C(N(C)C)C2O)C1OC (stereo not drawn) , what is its reported Minimum inhibitory concentration (MIC)?
### Response > 100 μ g/ml
